pKa below 7 gives label 0; pKa at or above it gives label 1.

Example entries and their recorded answers appear below.
>>> classassignment("Br.Oc1noc2c1CNCC2")
"label 0"
>>> classassignment("Cc1c(-c2noc(-c3ccc(OC(C)C)c(C#N)c3)n2)ccc2c1CCN(C(CO)CO)C2")
"label 1"
>>> classassignment("O=S(=O)(c1cccc(F)c1)c1ccc2c3c(oc2c1)C1(CCCOC1)NCC3 (stereo unspecified)")
"label 1"

*Q* Test whether the compound CN1CCN2c3ncccc3Cc3ccccc3C2C1 (stereo unspecified) records pKa of 7 or higher.
*A* label 1

*Q* Entry Cc1nc2c(CCc3ccccc3)cccn2c1N please
*A* label 1

*Q* Would you kindly repeat that for CS(=O)(=O)Nc1ccc(Nc2c3ccccc3nc3ccccc23)cc1Cl ?
*A* label 0

*Q* Cool, now Cc1cc(Cl)cc(C)c1N=C1NCCN1
*A* label 1

*Q* // same read-out, input: O=c1[nH]c(=O)n([C@H]2C[C@H](O)[C@@H](CO)O2)cc1I
*A* label 1

*Q* How about OB(O)c1ccccc1 ?
*A* label 1

*Q* Okay, and COc1cc(NS(C)(=O)=O)ccc1Nc1c2ccccc2nc2ccc(F)cc12 ?
*A* label 0

*Q* Next record, please: CCc1cccc2c3c([nH]c12)C(CC)(CC(=O)O)OCC3 (stereo unspecified)
*A* label 0

*Q* Thanks! And COc1ccc2c(c1)N(C[C@H](C)CN(C)C)c1ccccc1S2 ?
*A* label 1

*Q* Now consider CN1CCCC(n2nc(Cc3ccc(Cl)cc3)c3ccccc3c2=O)CC1 (stereo unspecified) and answer again.
*A* label 1
